# testedSystem: T1, IL-4Rα on TF-1 cells (human, UniProt P24394 26-825)
# T1 sequence (looked up): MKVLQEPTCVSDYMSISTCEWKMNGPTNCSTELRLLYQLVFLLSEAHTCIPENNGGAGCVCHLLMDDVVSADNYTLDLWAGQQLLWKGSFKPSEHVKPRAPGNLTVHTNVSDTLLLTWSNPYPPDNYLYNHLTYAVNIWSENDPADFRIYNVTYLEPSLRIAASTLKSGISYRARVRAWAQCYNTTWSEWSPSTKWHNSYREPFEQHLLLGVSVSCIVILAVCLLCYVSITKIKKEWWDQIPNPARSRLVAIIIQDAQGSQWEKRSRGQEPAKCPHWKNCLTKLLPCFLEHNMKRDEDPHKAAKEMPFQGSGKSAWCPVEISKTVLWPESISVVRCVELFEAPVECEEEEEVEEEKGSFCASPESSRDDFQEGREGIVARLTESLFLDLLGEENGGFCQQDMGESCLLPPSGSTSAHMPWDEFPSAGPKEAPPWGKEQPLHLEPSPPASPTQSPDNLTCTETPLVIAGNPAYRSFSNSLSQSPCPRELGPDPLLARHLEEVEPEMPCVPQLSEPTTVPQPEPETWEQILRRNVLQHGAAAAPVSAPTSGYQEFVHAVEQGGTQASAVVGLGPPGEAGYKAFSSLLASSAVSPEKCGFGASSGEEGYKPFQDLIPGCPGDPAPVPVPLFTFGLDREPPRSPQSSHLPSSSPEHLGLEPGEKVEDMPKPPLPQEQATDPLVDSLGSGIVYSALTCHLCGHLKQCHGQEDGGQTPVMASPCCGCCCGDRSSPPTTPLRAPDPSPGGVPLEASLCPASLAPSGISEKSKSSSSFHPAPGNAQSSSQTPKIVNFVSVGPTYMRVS
# methodNotes: cell-based or functional assay
readoutLabel: Inhibitory rate on pro-proliferative effect of IL-13
# respond with the number and nothing more

L1022H1000 (antibody, V domains shown, human kappa) VH: EVQLVQSGGGLVHPGGSLRLSCAGSGFTFSRNAMFWVRQAPGKGLEWVSGIGTGGATNYADSVKGRFTISRDNAKNSLYLQMNSLRAEDMAVYYCARGRYYFDYWGQGTLVTVSS VL: EIVLTQSPGTLSLSPGERATLSCRASQSVSNSYLAWYQQKPGQAPRLLIYGASSRATGIPDRFSGSGSGTDFTLTISRLEPEDFAVYYCQQYDHSAGWTFGQGTKVEIK ... 0.02

# return recorded Inhibitory rate on pro-proliferative effect of IL-13 for input L1024H1000 (antibody, V domains shown, human kappa) VH: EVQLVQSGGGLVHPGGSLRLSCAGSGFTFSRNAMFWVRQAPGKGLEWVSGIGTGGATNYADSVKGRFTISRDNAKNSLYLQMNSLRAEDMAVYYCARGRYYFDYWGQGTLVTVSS VL: EIVLTQSPGTLSLSPGERATLSCRASQSVSNSYLAWYQQKPGQAPRLLIFGASSRAPGIPDRFSGSGSGTDFTLTISRLEPEDFAVYYCQQYDHSAGWTFGQGTKVEIK
0.39

# return recorded Inhibitory rate on pro-proliferative effect of IL-13 for input L1024H1007 (antibody, V domains shown, human kappa) VH: EVQLVQSGGGLVHPGGSLRLSCAGSGFTFSRNAMFWVRQAPGKGLEWVSGIGTGGATSYADSVKGRFTISRDNAKNSLYLQMNSLRAEDMAVYYCARGRYYFDYWGQGTLVTVSS VL: EIVLTQSPGTLSLSPGERATLSCRASQSVSNSYLAWYQQKPGQAPRLLIFGASSRAPGIPDRFSGSGSGTDFTLTISRLEPEDFAVYYCQQYDHSAGWTFGQGTKVEIK
0.7
